Biological target: Bifunctional epoxide hydrolase 2 (Homo sapiens)
Sequence (P34913 whole entry): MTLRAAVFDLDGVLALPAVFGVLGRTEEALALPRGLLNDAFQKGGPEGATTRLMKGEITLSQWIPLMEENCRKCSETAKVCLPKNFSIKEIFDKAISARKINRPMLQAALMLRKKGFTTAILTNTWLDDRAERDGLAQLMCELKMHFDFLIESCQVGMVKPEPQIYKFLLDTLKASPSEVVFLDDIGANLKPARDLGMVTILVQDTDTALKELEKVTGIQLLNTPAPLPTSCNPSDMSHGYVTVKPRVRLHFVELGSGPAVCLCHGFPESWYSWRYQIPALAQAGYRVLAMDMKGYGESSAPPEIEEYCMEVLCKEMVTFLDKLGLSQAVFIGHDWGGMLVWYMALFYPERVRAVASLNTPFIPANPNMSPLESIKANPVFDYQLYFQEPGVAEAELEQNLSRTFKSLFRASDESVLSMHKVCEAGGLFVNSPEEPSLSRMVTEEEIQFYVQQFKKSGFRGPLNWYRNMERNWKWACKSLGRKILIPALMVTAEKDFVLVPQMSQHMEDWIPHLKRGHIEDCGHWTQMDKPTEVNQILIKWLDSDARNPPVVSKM
Test: Inhibition of recombinant human full length sEH assessed as reduction in 6-methoxy-2-naphthaldehyde formation using PHOME as substrate preincubated for 30 to 45 mins followed by substrate addition and measured after 30 to 45 mins by fluorescence assay
pIC50: −log10 of the molar value.
# cutoff 7 applies to pIC50; >= gives TRUE, < gives FALSE

# example entries with known answers
INSERT INTO measurements (molecule_smiles, class) VALUES
  ('COc1ccc(CNC(=O)c2ccc3c(cnn3Cc3cccc(F)c3)c2)c(C(F)(F)F)c1', 'TRUE'),
  ('CC(C)S(=O)(=O)n1ccc2cc(C(=O)NCc3ccc(NS(=O)(=O)C4CC4)cc3C(F)(F)F)ccc21', 'TRUE'),
  ('COc1ccc(CNC(=O)c2ccc3c(c2)[nH]c(=O)n3Cc2cccc(F)c2)c(C(F)(F)F)c1', 'TRUE'),
  ('O=C(NCc1ccccc1C(F)(F)F)c1ccc2c(cnn2Cc2cccc(F)c2)c1', 'TRUE'),
  ('COc1ccc(CNC(=O)c2ccc3c(ccn3Cc3cccc(F)c3)c2)c(C(F)(F)F)c1', 'FALSE'),
  ('O=C(NCc1ccccc1C(F)(F)F)c1ccc2c(c1)[nH]c(=O)n2Cc1ccccc1F', 'TRUE'),
  ('O=C(NCc1ccc(NC(=O)C(F)(F)F)cc1C(F)(F)F)c1ccc2c(ccn2Cc2cccc(F)c2)c1', 'TRUE'),
  ('O=C(NCc1ccccc1C(F)(F)F)c1ccc2c(c1)[nH]c(=O)n2Cc1cc(F)cc(F)c1', 'TRUE'),
  ('O=C(NCc1ccccc1C(F)(F)F)c1ccc2c(ccn2Cc2cccc(F)c2)c1', 'FALSE'),
  ('CSCc1ccc(CNC(=O)c2ccc3c(ccn3Cc3cccc(F)c3)c2)c(C(F)(F)F)c1', 'TRUE');

pIC50 >= 7 for `CCS(=O)(=O)Nc1ccc(CNC(=O)c2ccc3c(ccn3Cc3cccc(F)c3)c2)c(C(F)(F)F)c1` ?
TRUE

pIC50 >= 7 for `O=C(NCc1ccc(NS(=O)(=O)C2CC2)cc1C(F)(F)F)c1ccc2[nH]ccc2c1` ?
TRUE

pIC50 >= 7 for `COc1ccc(CNC(=O)c2ccc3c(c2)[nH]c(=O)n3Cc2ccccc2)c(C(F)(F)F)c1` ?
TRUE

pIC50 >= 7 for `CN(C)CCn1ccc2cc(C(=O)NCc3ccc(NS(=O)(=O)C4CC4)cc3C(F)(F)F)ccc21` ?
TRUE

pIC50 >= 7 for `O=C(NCc1ccccc1C(F)(F)F)c1ccc2c(c1)[nH]c(=O)n2Cc1ccc(Cl)cc1` ?
FALSE

###

Biological target: Peroxisome proliferator-activated receptor gamma (Homo sapiens, UniProt P37231)
Sequence (P37231 whole entry): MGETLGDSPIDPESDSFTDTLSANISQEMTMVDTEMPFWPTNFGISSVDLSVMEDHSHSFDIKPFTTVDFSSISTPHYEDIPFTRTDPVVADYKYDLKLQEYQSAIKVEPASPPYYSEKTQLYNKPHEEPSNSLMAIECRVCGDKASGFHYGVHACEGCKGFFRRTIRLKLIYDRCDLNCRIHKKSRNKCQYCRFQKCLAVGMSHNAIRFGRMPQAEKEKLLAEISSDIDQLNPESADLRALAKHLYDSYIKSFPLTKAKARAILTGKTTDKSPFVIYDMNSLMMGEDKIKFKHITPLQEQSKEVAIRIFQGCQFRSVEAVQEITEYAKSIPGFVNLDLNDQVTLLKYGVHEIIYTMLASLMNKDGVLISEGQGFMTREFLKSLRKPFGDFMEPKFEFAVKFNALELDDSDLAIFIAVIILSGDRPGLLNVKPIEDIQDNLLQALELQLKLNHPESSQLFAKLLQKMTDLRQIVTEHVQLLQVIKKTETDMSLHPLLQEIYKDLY
Assay: Partial agonist activity at recombinant sGSF-PPARgamma (unknown origin) assessed as reduction in rosiglitazone induced CBP-1 recruitment incubated for 1 hr by HTRF competitive assay
MEASURED_ENDPOINT: IC50 (nM)
Record the value in nM, omitting the unit from your answer.

Reported IC50 for `CS(=O)(=O)Nc1ccc(CNC(=O)c2ccc3c(ccn3Cc3cccc(F)c3)c2)c(C(F)(F)F)c1` was 1620
